Entries and their protein stability index values follow.
B1: SCNN1D (parent)
chain: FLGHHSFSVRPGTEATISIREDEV

Variants of: B1
assayRemarks: protein stability index of a GFP-peptide fusion (GPS, HEK-293T) (PSI 1-6); higher = more stable;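 also: lentivirally expressed fusions sorted by FACS into six bins by GFP to DsRed ratio, PSI derived from sequencing read proportions per bin multiplied by bin number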
conditionSummary: c terminus: a fixed tail appended
endpointLabel: protein stability index

mutantLabel | numericValue
V9I | 2.26
P11D | 1.88
I19F | 2.21
H5R | 2.55
V9H | 3.09
D22T | 2.07
A15W | 3.05
G3K | 3.02
L2E | 4.5
H5I | 1.64
A15T | 2.31
I17Y | 2.79
T13V | 1.49
T16S | 2.57
A15K | 1.91
H4F | 3.4
D22C | 2.21
S8M | 1.75
R20V | 1.65
S6C | 2.25
T16M | 2.62
H4A | 2.74
G12I | 1.54
S18F | 1.8
S8A | 3.59
I17N | 1.68
P11I | 2.14
A15H | 1.67
S6W | 1.85
R20I | 2.5
P11G | 1.64
R10Q | 2.49
A15M | 1.58
D22K | 2.04
F1I | 4.02
S18V | 1.25
R20W | 1.42
E14L | 1.92
E21R | 2.6
G12Y | 1.15
D22Q | 1.39
T16A | 2.37
V9D | 3.54
F1N | 4.38
I19S | 2.13
S6P | 1.46
E21Y | 2.52
G12T | 1.67
S8D | 3.02
F1Y | 1.97
H5V | 1.33
V24W | 1.44
E21D | 1.56
T16P | 1.85
V24A | 1.8
H5A | 2.46
R20L | 1.52
S6G | 1.16
L2W | 2.4
H5N | 1.71
S8Q | 1.78
E21K | 1.44
I19P | 1.89
S8P | 3.49
G12L | 1.71
I19G | 2.6
G12Q | 1.56
H4E | 3.39
S18G | 1.47
V24D | 2.15
S6A | 3.88
E23P | 1.99
A15Q | 1.96
S6E | 2.73
F7W | 3.24
E23G | 2.29
T16Y | 2.23
V9M | 2.42
G3S | 2.42
F1R | 4.42
R10P | 2.11
F1K | 4.3
I19K | 2.14
D22N | 2.23
E21S | 1.8
R10T | 1.92
H4K | 2.16
E23T | 1.41
G12P | 1.83
H4L | 2.08
G12K | 1.71
